# test target: horseradish peroxidase (HRP) tagged delF508-CFTR (Homo sapiens, UniProt P13569, DEL508-508)
# Construct: expressed in transfected cells
# Sequence (P13569 with tags, fused parts or gaps DEL508-508): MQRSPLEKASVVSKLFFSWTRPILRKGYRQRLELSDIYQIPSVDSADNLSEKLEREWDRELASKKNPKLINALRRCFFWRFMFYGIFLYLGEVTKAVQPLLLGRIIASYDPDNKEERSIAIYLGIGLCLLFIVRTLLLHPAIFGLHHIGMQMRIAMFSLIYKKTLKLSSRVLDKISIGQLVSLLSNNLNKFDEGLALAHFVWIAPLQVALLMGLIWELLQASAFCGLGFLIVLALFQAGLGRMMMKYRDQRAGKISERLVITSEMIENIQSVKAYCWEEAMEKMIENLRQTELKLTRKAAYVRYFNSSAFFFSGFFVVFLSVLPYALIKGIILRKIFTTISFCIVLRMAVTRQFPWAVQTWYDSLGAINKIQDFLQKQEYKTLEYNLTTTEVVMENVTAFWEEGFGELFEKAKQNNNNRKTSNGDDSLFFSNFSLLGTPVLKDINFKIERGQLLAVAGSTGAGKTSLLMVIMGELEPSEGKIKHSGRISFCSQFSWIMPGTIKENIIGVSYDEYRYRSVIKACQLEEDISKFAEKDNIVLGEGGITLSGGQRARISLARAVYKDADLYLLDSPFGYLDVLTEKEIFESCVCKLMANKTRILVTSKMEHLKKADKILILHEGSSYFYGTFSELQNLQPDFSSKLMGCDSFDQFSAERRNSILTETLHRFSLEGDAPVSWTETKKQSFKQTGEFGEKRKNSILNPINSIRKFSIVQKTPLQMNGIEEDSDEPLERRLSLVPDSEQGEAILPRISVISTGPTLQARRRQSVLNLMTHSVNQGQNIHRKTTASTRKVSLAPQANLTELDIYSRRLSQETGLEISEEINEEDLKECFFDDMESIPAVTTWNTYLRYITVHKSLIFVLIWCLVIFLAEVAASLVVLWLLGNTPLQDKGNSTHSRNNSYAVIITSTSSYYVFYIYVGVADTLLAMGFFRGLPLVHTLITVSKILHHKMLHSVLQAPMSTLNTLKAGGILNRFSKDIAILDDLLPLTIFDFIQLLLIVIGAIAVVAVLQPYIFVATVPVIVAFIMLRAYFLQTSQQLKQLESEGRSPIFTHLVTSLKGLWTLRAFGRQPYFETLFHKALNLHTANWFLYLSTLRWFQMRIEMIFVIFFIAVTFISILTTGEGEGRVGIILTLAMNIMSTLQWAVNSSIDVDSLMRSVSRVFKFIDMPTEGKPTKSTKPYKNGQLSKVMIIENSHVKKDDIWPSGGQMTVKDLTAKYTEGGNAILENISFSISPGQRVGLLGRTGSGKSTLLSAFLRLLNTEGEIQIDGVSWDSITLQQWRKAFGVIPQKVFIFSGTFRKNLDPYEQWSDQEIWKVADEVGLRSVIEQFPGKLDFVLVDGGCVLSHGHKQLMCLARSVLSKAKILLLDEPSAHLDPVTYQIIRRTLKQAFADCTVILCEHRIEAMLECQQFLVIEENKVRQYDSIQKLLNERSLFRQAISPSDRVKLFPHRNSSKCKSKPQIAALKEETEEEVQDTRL
# test description: Measurement of delF508-CFTR-HRP surface expression in CFBE41o- cells
# Format: cell-based
# condition details: delF508-CFTR-HRP surface expression, CFBE41o- cells; read-out: DelF508-CFTR-HRP EC50
pEC50: −log10 of the molar value. Where a name gives a salt, the structure may show the parent alone.
parameter measured: pEC50

[
  {
    "compound": "Cc1cc(C#N)ccc1-c1nc(NS(=O)(=O)c2ccnc(N)c2)ccc1Cl [Example 92]",
    "pEC50": 5.96
  },
  {
    "compound": "CC1(O)CN(c2cccc(S(=O)(=O)Nc3ccc(Cl)c(-c4ccc(F)cc4Cl)n3)n2)C1 [Example 213]",
    "pEC50": 5.60
  },
  {
    "compound": "Cc1ccccc1-c1nc(NS(=O)(=O)c2cccc(O[C@@H]3COC[C@@]3(C)O)n2)ccc1C(F)(F)F (single isomer, unassigned) [Example 295]",
    "pEC50": 5.69
  },
  {
    "compound": "Cc1ccccc1-c1nc(NS(=O)(=O)c2cccc(N3CCNCC3)n2)ccc1Cl [Example 195, hydrochloride]",
    "pEC50": 5.47
  },
  {
    "compound": "Cc1cccc(Cl)c1-c1nc(NS(=O)(=O)c2cccc(N)n2)ccc1Cl [Example 13]",
    "pEC50": 5.88
  }
]

a: Cc1c(F)cccc1-c1nc(NS(=O)(=O)c2cccc(N3CCCC(C)(C(=O)O)C3)n2)ccc1C(F)(F)F (centres unmarked) [Example 362]
b: Nc1cccc(S(=O)(=O)Nc2ccc(Cl)c(-c3ccc(C(F)(F)F)cc3)n2)n1 [Example 94]
[Q] Hello, I am sorting some records. Could you say if a or b has the smaller pEC50 value? Answer by stating the label of the chosen item.
[A] b
(b: 5.50, a: 5.70)

a: Nc1cccc(S(=O)(=O)Nc2ccc(Cl)c(-c3ccccc3C3CC3)n2)n1 [Example 19]
b: Cc1ccc(F)cc1-c1nc(NS(=O)(=O)c2cccc(N3CCN[C@H](C)C3)n2)ccc1C(F)(F)F [Example 176, Hydrochloride]
[Q] Given a and given b , which shows the smaller recorded pEC50? Refer to your chosen item by its label in the answer.
[A] b
(b: 5.47, a: 5.89)

P: Cc1ccc(F)cc1-c1nc(NS(=O)(=O)c2cccc(N[C@@H]3[C@H](CO)[C@H]4CC[C@@H]3O4)n2)ccc1Cl [Example 128]
Q: CC(C)c1ccccc1-c1nc(NS(=O)(=O)c2cccc(N3CCCC(C)(C(=O)O)C3)n2)ccc1C(F)(F)F (centres unmarked) [Example 377]
[Q] Among P and Q , which shows a numerically higher pEC50 result? Response format: the label of the selected entry.
[A] Q

A: Cc1ccc(F)cc1-c1nc(NS(=O)(=O)c2cccc(N3CCC(O)C3C(=O)O)n2)ccc1C(F)(F)F (centres unmarked) [Example 315]
B: Cc1c(F)cccc1-c1nc(NS(=O)(=O)c2cccc(N3CC(O)C3)n2)ccc1C(F)(F)F [Example 216]
C: CCCC1(C(=O)O)CCCN(c2cccc(S(=O)(=O)Nc3ccc(C(F)(F)F)c(-c4ccccc4CC)n3)n2)C1 (centres unmarked) [Example 352]
[Q] Put the entries in order of pEC50, starting with the largest number. Reply: labels, ordered per the request.
[A] C, B, A
(C: 6.16, B: 5.77, A: 5.48)
